The following molecules are shown together with reported ERβ eudismic ratio values.
target_system: UniProt:Q92731
Sequence (Q92731 whole entry): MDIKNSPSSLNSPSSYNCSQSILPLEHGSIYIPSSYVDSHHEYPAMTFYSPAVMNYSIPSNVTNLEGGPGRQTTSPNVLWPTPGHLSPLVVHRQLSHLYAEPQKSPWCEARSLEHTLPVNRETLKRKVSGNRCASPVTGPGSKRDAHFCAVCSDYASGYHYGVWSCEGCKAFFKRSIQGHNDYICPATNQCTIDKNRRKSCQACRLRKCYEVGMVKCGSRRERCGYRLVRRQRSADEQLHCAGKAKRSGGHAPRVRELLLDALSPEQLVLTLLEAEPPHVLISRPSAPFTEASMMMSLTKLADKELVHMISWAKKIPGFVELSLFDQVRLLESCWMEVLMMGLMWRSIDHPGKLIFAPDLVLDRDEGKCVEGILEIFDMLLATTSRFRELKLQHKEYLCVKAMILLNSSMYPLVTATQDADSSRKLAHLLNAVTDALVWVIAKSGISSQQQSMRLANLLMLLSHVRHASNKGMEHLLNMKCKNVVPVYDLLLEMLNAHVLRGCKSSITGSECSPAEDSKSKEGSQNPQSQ
protocol_summary: ERβ transactivation bioassay in recombinant CHO cells (rat oxytocin promoter, luciferase reporter)
Type: cell-based
test_conditions: ratio of the activities of the eutomer and the distomer on ERβ

- molecule: "C[C@H]1[C@@H](c2ccc(O)cc2)Cc2ccc(O)cc2[C@H]1Cc1ccc(F)cc1 (single isomer, unassigned) [Compound 11g]"
  comparison_symbol: "="
  ERβ eudismic ratio: 9
- molecule: "C[C@H]1[C@@H](c2ccc(O)cc2)Cc2ccc(O)cc2[C@H]1Cc1ccccc1C#N (single isomer, unassigned) [Compound 11j]"
  comparison_symbol: "="
  ERβ eudismic ratio: 143
- molecule: "C[C@H]1[C@@H](c2ccc(O)cc2)Cc2ccc(O)cc2[C@H]1Cc1c(F)cccc1F (single isomer, unassigned) [Compound 11i]"
  comparison_symbol: ">"
  ERβ eudismic ratio: 212
- molecule: "CC[C@H]1[C@@H](c2ccc(O)cc2)Cc2ccc(O)cc2[C@H]1Cc1ccc(F)cc1 (single isomer, unassigned) [Compound 11w]"
  comparison_symbol: "="
  ERβ eudismic ratio: 42
- molecule: "CC[C@H]1[C@@H](c2ccc(O)cc2)Cc2ccc(O)cc2[C@H]1Cc1ccccc1F (single isomer, unassigned) [Compound 11b]"
  comparison_symbol: "="
  ERβ eudismic ratio: 93

###

protocol_summary: metabolic stability in human hepatocytes
Assay type: in vitro ADME
test_conditions: cryopreserved human hepatocytes in suspension, tetrahydronaphthalen-2-ol, 37°C, sampled 0-120 min, LC-MS/MS, read-out: Human hepatocyte T1/2

- compound: "CCC1C(c2ccc(O)cc2)Cc2ccc(O)cc2C1Cc1ccccc1C (racemic) [Compound 9v]"
  comparison_symbol: "="
  half-life at 1 µM / min: 69.8
- compound: "CC1C(c2ccc(O)cc2)Cc2ccc(O)cc2C1Cc1ccccc1C#N (racemic) [Compound 9j]"
  comparison_symbol: "="
  half-life at 1 µM / min: 37.4
- compound: "CC[C@H]1[C@@H](c2ccc(O)c(F)c2)Cc2ccc(O)cc2[C@H]1Cc1ccccc1F (single isomer, unassigned) [Compound 11q]"
  comparison_symbol: "="
  half-life at 1 µM / min: 82.2
- compound: "C[C@H]1[C@@H](c2ccc(O)cc2)Cc2ccc(O)cc2[C@H]1Cc1ccccc1C#N (single isomer, unassigned) [Compound 11j]"
  comparison_symbol: "="
  half-life at 1 µM / min: 29.4
- compound: "CC1C(c2ccc(O)cc2F)Cc2ccc(O)cc2C1Cc1ccccc1F (racemic) [Compound 9p]"
  comparison_symbol: ">"
  half-life at 1 µM / min: 120
- compound: "C[C@H]1[C@@H](c2ccc(O)cc2)Cc2ccc(O)cc2[C@H]1Cc1ccccc1F (single isomer, unassigned) [Compound 11a]"
  comparison_symbol: "="
  half-life at 1 µM / min: 40.5
- compound: "C[C@@H]1[C@H](c2ccc(O)cc2)Cc2ccc(O)cc2[C@@H]1Cc1ccccc1F (single isomer, unassigned) [Compound 12a]"
  comparison_symbol: "="
  half-life at 1 µM / min: 66.9
- compound: "C[C@@H]1[C@H](c2ccc(O)cc2)Cc2ccc(O)cc2[C@@H]1Cc1c(F)cccc1F (single isomer, unassigned) [Compound 12i]"
  comparison_symbol: "="
  half-life at 1 µM / min: 67.1
- compound: "CCC1C(c2ccc(O)cc2F)Cc2ccc(O)cc2C1Cc1ccccc1F (racemic) [Compound 9o]"
  comparison_symbol: "="
  half-life at 1 µM / min: 73.2
- compound: "CC[C@H]1[C@@H](c2ccc(O)cc2)Cc2ccc(O)cc2[C@H]1Cc1ccccc1F (single isomer, unassigned) [Compound 11b]"
  comparison_symbol: "="
  half-life at 1 µM / min: 40.7
